Test summary: Inhibition of 4-methylumbelliferone glucuronidation by human UGT enzymes from liver microsomes
Design: species or system Microsome
Here, each record is paired with measured Ki data.

[
  {
    "Compound": "CN1C(=O)C(O)N=C(c2ccccc2)c2cc(Cl)ccc21 (stereo not drawn)",
    "Ki": "217 µM"
  },
  {
    "Compound": "CC(C(=O)O)c1cccc(Oc2ccccc2)c1 (stereo not drawn)",
    "Ki": "220 µM"
  }
]

Next compound, Ki to be filled in.
Query block: Given the compound O=C1Nc2ccc(Cl)cc2C(c2ccccc2)=NC1O (stereo not drawn) , what is its reported Ki?
Result block: 188 µM

Values from ChEMBL document CHEMBL1908105
